Each recorded value in this set is attributed to ChEMBL document CHEMBL3217627.

The compounds below have reported pEC50 for Hexokinase-4 (Homo sapiens, UniProt P35557).
// scale note: pEC50 = -log10(conc_M); give the bare number

Fill in the recorded pEC50 for this compound, with Hexokinase-4 (Homo sapiens, UniProt P35557) as test system: CCc1cnc(NC(=O)c2cc(Oc3cnc(C(=O)N(C)C)cn3)c3cc(C)oc3c2)cn1
Sequence (P35557 whole entry): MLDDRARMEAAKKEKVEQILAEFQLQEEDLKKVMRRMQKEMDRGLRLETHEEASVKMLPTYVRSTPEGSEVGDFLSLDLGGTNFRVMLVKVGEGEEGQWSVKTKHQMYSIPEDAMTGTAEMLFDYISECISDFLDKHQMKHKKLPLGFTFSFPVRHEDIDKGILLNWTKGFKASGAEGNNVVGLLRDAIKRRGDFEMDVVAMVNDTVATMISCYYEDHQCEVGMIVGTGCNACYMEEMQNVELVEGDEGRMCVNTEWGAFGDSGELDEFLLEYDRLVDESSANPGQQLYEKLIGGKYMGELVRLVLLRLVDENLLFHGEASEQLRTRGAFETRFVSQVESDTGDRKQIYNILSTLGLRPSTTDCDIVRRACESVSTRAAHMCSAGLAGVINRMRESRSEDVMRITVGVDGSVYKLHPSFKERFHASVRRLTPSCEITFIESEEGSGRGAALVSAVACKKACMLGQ
6.60

Hi! What's the reported pEC50 for Cc1cc2c(Oc3cnc(C(=O)N(C)C)cn3)cc(C(=O)Nc3cnc(C(F)(F)F)cn3)cc2o1 on Hexokinase-4 (Homo sapiens, UniProt P35557)?
6.78

Query the reported pEC50 for Hexokinase-4 (Homo sapiens, UniProt P35557); item: Cc1cnc(NC(=O)c2cc(Oc3ccc(C(=O)N(C)C)cc3)c3cc(C)oc3c2)cn1
7.04
